Assay: Solubility data in solvents
Type: physicochemical
Details: organic solvent or mixture; solvent n-heptane
Examples of compounds with documented solubility follow.

Would you kindly share the measured solubility for COc1c(Cl)cccc1NC(=S)C1=C(O)CCN(C(=O)OC(C)(C)C)C1=O ?
< 5000 µg/mL

Could you now consider this next compound?
Fill blank: measured solubility of the compound COc1c(Cl)cccc1Nc1c(-c2ccncc2Br)[nH]c2c1C(=O)N(C(=O)OC(C)(C)C)CC2 is ____.
< 5000 µg/mL

* * *

Assay: Solubility data in solvents
Type: physicochemical
Conditions: organic solvent or mixture; solvent EtOH
OUTCOME_MEASURE: solubility

If you can, please state the reported solubility value of COc1c(Cl)cccc1Nc1c(-c2ccncc2Br)[nH]c2c1C(=O)N(C(=O)OC(C)(C)C)CC2 .
6250 µg/mL

Further cases:
Given the entry COc1c(Cl)cccc1NC(=S)C1=C(O)CCN(C(=O)OC(C)(C)C)C1=O , report its measured solubility.
< 5000 µg/mL

* * *

Test: Solubility data in solvents
Assay type: physicochemical
Settings: organic solvent or mixture; solvent MeCN
OUTCOME_MEASURE: solubility (µg/mL)
Hi! Could you send only the number? It should be in µg/mL, unit omitted.

# query: solubility of entry COc1c(Cl)cccc1Nc1c(-c2ccncc2Br)[nH]c2c1C(=O)NCC2
2000

* * *

Listing: solubility of selected molecules
Assay: Solubility data in solvents
Type: physicochemical
Settings: organic solvent or mixture; solvent MTBE
Write down the numeric answer in mg/mL and omit the unit.

Which solubility is reported for this molecule? COc1c(Cl)cccc1Nc1c(-c2ccncc2Br)[nH]c2c1C(=O)N(C(=O)OC(C)(C)C)CC2
6.25

Also need COc1c(Cl)cccc1NC(=S)C1=C(O)CCN(C(=O)OC(C)(C)C)C1=O , thanks.
28

* * *

Assay: Solubility data in solvents
Type: physicochemical
Conditions: organic solvent or mixture; solvent 2-MeTHF
OUTCOME_MEASURE: solubility (µg/mL)
Form entry: value (µg/mL) — number only.

What value of solubility has been recorded for this entry: COc1c(Cl)cccc1Nc1c(-c2ccncc2Br)[nH]c2c1C(=O)NCC2
5000

* * *

Below, each entry is listed alongside its reported solubility.
Test: Solubility data in solvents
Assay type: physicochemical
Conditions: organic solvent or mixture; solvent MeOH
Provide only the numeric value, understood in µg/mL.

Need solubility, item COc1c(Cl)cccc1Nc1c(-c2ccncc2Br)[nH]c2c1C(=O)N(C(=O)OC(C)(C)C)CC2
7100

Please look at the following compound next.
Recorded solubility of COc1c(Cl)cccc1NC(=S)C1=C(O)CCN(C(=O)OC(C)(C)C)C1=O , please.
5000

* * *

Assay: Solubility data in solvents
Type: physicochemical
Settings: organic solvent or mixture; solvent HFIP
OUTCOME_MEASURE: solubility
Units required after the number.

Endpoint output: solubility of COc1c(Cl)cccc1Nc1c(-c2ccncc2Br)[nH]c2c1C(=O)NCC2 . Value?
94 mg/mL

* * *

Test: Solubility data in solvents
Assay type: physicochemical
Conditions: organic solvent or mixture; solvent NMP
OUTCOME_MEASURE: solubility

Please give the measured solubility for this compound: COc1c(Cl)cccc1Nc1c(-c2ccncc2Br)[nH]c2c1C(=O)NCC2 [Compound 102]
> 100 mg/mL

* * *

Assay: Solubility data in solvents
Assay type: physicochemical
Conditions: organic solvent or mixture; solvent DMF
OUTCOME_MEASURE: solubility

Fill in the blank: the reported solubility of COc1c(Cl)cccc1Nc1c(-c2ccncc2Br)[nH]c2c1C(=O)NCC2 is ____.
> 100 mg/mL

* * *

Test: Solubility data in solvents
Format: physicochemical
Details: organic solvent or mixture; solvent EtOAc
OUTCOME_MEASURE: solubility (mg/mL)
Expressed in mg/mL, but write only the number.

State the recorded solubility for this entry: COc1c(Cl)cccc1Nc1c(-c2ccncc2Br)[nH]c2c1C(=O)N(C(=O)OC(C)(C)C)CC2
6.25

Item: COc1c(Cl)cccc1NC(=S)C1=C(O)CCN(C(=O)OC(C)(C)C)C1=O
100

* * *

Test: Solubility data in solvents
Format: physicochemical
Conditions: organic solvent or mixture; solvent DCM
OUTCOME_MEASURE: solubility

Find the recorded solubility belonging to COc1c(Cl)cccc1Nc1c(-c2ccncc2Br)[nH]c2c1C(=O)N(C(=O)OC(C)(C)C)CC2 and report it.
> 125 mg/mL

# input for lookup
Entry COc1c(Cl)cccc1NC(=S)C1=C(O)CCN(C(=O)OC(C)(C)C)C1=O has what solubility?
> 200 mg/mL

* * *

Assay: Solubility data in solvents
Format: physicochemical
Conditions: organic solvent or mixture; solvent DMSO
OUTCOME_MEASURE: solubility

What does the record list as solubility for COc1c(Cl)cccc1Nc1c(-c2ccncc2Br)[nH]c2c1C(=O)NCC2 ?
> 100 mg/mL

* * *

Experiment: Solubility data in solvents
Type: physicochemical
Conditions: organic solvent or mixture; solvent TFE
OUTCOME_MEASURE: solubility (mg/mL)
Please reply with the bare figure in mg/mL and do not write the unit itself.

Param item = COc1c(Cl)cccc1Nc1c(-c2ccncc2Br)[nH]c2c1C(=O)NCC2 [Compound 102] ; retrieve measured solubility.
79
